Can you tell me self-splicing fitness (ln) for the items I'm about to list?
experimental_details: self-splicing fitness, log relative to wild type (ln ratio); higher = more splicing; Tetrahymena group I intron in knt gene, E. coli kanamycin selection, DiMSum; sequences stand for … in CUCUCU…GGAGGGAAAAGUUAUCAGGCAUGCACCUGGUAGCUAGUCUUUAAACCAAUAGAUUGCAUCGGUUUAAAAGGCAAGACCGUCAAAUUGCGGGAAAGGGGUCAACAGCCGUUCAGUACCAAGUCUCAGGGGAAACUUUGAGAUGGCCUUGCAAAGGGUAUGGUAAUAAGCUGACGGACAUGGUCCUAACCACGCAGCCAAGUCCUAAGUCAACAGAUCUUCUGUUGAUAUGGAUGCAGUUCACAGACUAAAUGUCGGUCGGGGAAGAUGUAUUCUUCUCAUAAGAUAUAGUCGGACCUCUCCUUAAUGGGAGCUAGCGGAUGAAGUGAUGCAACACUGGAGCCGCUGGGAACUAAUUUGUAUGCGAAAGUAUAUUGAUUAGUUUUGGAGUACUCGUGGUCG;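 note: selection with 25 µg/mL kanamycin versus none on LB agar overnight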
condition_label: 30 °C
// return just the number, without any unit appended

Query block: # get_value(readout='self-splicing fitness (ln)', item= "GGCCAGCAAUAUUACGAACC" )
Result block: 0.576

Query block: # get_value(readout='self-splicing fitness (ln)', item= "CAAAAGCAAUAUUACGGCUC" )
Result block: -1.56

Query block: # get_value(readout='self-splicing fitness (ln)', item= "CGAAAGCAAUAUUACGAACC" )
Result block: -0.666

Query block: # get_value(readout='self-splicing fitness (ln)', item= "ACCCAGCAAUAUUACGUCAG" )
Result block: -3.14

Query block: # get_value(readout='self-splicing fitness (ln)', item= "CAUCAGCAAUAUUACGCGCG" )
Result block: 0.0702

Query block: # get_value(readout='self-splicing fitness (ln)', item= "CCUGAGCAAUAUUACGUUGU" )
Result block: -3.57

Query block: # get_value(readout='self-splicing fitness (ln)', item= "CCGCAGCAAUAUUACGGCAA" )
Result block: -2.74

Query block: # get_value(readout='self-splicing fitness (ln)', item= "UGUUAGCAAUAUUACGGGUA" )
Result block: -0.939

* * *

experimental_details: self-splicing fitness, log relative to wild type (ln ratio); higher = more splicing; Tetrahymena group I intron in knt gene, E. coli kanamycin selection, DiMSum; sequences stand for … in CUCUCU…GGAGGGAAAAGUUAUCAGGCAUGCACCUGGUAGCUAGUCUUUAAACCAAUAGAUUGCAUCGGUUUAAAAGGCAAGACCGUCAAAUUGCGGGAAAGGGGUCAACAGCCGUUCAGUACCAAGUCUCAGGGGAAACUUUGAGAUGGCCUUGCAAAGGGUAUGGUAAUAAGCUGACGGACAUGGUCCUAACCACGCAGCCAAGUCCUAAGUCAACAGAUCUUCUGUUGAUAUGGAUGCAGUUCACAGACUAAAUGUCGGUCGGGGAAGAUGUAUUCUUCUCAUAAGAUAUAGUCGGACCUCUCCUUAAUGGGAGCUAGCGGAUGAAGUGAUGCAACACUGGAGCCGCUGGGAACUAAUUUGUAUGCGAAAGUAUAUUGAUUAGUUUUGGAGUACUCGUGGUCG
condition_label: 30 °C
quantity_name: self-splicing fitness (ln)
// return just the number, without any unit appended

Query block: # get_value(readout='self-splicing fitness (ln)', item= "ACUAAGCAAUAUUACGAGCG" )
Result block: -0.928

Query block: # get_value(readout='self-splicing fitness (ln)', item= "GGUUAGCAAUAUUACGACCG" )
Result block: -0.946

Query block: # get_value(readout='self-splicing fitness (ln)', item= "AACGAGCAAUAUUACGCAGU" )
Result block: -2.87

Query block: # get_value(readout='self-splicing fitness (ln)', item= "AUUAAGCAAUAUUACGGGGU" )
Result block: -4.11

Query block: # get_value(readout='self-splicing fitness (ln)', item= "GCCGAGCAAUAUUACGGGAG" )
Result block: -3.67

Query block: # get_value(readout='self-splicing fitness (ln)', item= "CCGCAGCAAUAUUACGGCGA" )
Result block: -1.15

Query block: # get_value(readout='self-splicing fitness (ln)', item= "AACCAGCAAUAUUACGUUUA" )
Result block: -1.01

Query block: # get_value(readout='self-splicing fitness (ln)', item= "UCAAAGCAAUAUUACGGCGG" )
Result block: -0.543

Query block: # get_value(readout='self-splicing fitness (ln)', item= "UAGGAGCAAUAUUACGUGCU" )
Result block: -3.16

Query block: # get_value(readout='self-splicing fitness (ln)', item= "CGAGAGCAAUAUUACGAGCG" )
Result block: -0.966

Query block: # get_value(readout='self-splicing fitness (ln)', item= "CCAAAGCAAUAUUACGAUAG" )
Result block: -0.734

Query block: # get_value(readout='self-splicing fitness (ln)', item= "CCUUAGCAAUAUUACGGUUA" )
Result block: -3.48

Query block: # get_value(readout='self-splicing fitness (ln)', item= "CACAAGCAAUAUUACGCAAU" )
Result block: -3.31

Query block: # get_value(readout='self-splicing fitness (ln)', item= "GGUAAGCAAUAUUACGAUAA" )
Result block: -1.43

Query block: # get_value(readout='self-splicing fitness (ln)', item= "UGUAAGCAAUAUUACGUUCU" )
Result block: -0.123

Query block: # get_value(readout='self-splicing fitness (ln)', item= "GUGGAGCAAUAUUACGGUCA" )
Result block: -2.12

Query block: # get_value(readout='self-splicing fitness (ln)', item= "CAACAGCAAUAUUACGGCCU" )
Result block: -3.63

Query block: # get_value(readout='self-splicing fitness (ln)', item= "GGUGAGCAAUAUUACGUCUC" )
Result block: -1.28

Query block: # get_value(readout='self-splicing fitness (ln)', item= "UCGAAGCAAUAUUACGGGUG" )
Result block: -0.763

Query block: # get_value(readout='self-splicing fitness (ln)', item= "CGGUAGCAAUAUUACGUAUU" )
Result block: -2

Query block: # get_value(readout='self-splicing fitness (ln)', item= "UACGAGCAAUAUUACGUCGG" )
Result block: -3.5

Query block: # get_value(readout='self-splicing fitness (ln)', item= "UAUCAGCAAUAUUACGUUGU" )
Result block: -3.84

Query block: # get_value(readout='self-splicing fitness (ln)', item= "GCCCAGCAAUAUUACGAACU" )
Result block: -1.26

Query block: # get_value(readout='self-splicing fitness (ln)', item= "GUGUAGCAAUAUUACGUAUC" )
Result block: -1.01

Query block: # get_value(readout='self-splicing fitness (ln)', item= "GGUUAGCAAUAUUACGCAGG" )
Result block: -3.31

Query block: # get_value(readout='self-splicing fitness (ln)', item= "GUUAAGCAAUAUUACGGAUG" )
Result block: -3.1

Query block: # get_value(readout='self-splicing fitness (ln)', item= "CACCAGCAAUAUUACGUUGA" )
Result block: -4.33

Query block: # get_value(readout='self-splicing fitness (ln)', item= "GCAAAGCAAUAUUACGUGCG" )
Result block: -0.856

Query block: # get_value(readout='self-splicing fitness (ln)', item= "GCUAAGCAAUAUUACGAAGG" )
Result block: -1.85

Query block: # get_value(readout='self-splicing fitness (ln)', item= "GCGAAGCAAUAUUACGUAGU" )
Result block: -3.8

Query block: # get_value(readout='self-splicing fitness (ln)', item= "AACUAGCAAUAUUACGUGCA" )
Result block: -0.72

Query block: # get_value(readout='self-splicing fitness (ln)', item= "GUGCAGCAAUAUUACGAUAG" )
Result block: -2.3

Query block: # get_value(readout='self-splicing fitness (ln)', item= "AUGCAGCAAUAUUACGUCCU" )
Result block: 0.0695

Query block: # get_value(readout='self-splicing fitness (ln)', item= "AGGCAGCAAUAUUACGCAAA" )
Result block: -1.43

Query block: # get_value(readout='self-splicing fitness (ln)', item= "AGGGAGCAAUAUUACGGGAA" )
Result block: -1.37

Query block: # get_value(readout='self-splicing fitness (ln)', item= "AGGGAGCAAUAUUACGGGGA" )
Result block: -3.29

Query block: # get_value(readout='self-splicing fitness (ln)', item= "AGUCAGCAAUAUUACGAUAU" )
Result block: -0.289

Query block: # get_value(readout='self-splicing fitness (ln)', item= "CUAAAGCAAUAUUACGUGGG" )
Result block: -2.9

Query block: # get_value(readout='self-splicing fitness (ln)', item= "GGGAAGCAAUAUUACGGGGG" )
Result block: -4.18

Query block: # get_value(readout='self-splicing fitness (ln)', item= "GUGGAGCAAUAUUACGCGGG" )
Result block: -2.34

Query block: # get_value(readout='self-splicing fitness (ln)', item= "AACAAGCAAUAUUACGAAUU" )
Result block: -1.9

Query block: # get_value(readout='self-splicing fitness (ln)', item= "GCUAAGCAAUAUUACGGCAC" )
Result block: -1.31

Query block: # get_value(readout='self-splicing fitness (ln)', item= "AAGUAGCAAUAUUACGUAAA" )
Result block: -1.09

Query block: # get_value(readout='self-splicing fitness (ln)', item= "AGCUAGCAAUAUUACGCGCC" )
Result block: -2.25

Query block: # get_value(readout='self-splicing fitness (ln)', item= "GAGAAGCAAUAUUACGAAUA" )
Result block: -1.88

Query block: # get_value(readout='self-splicing fitness (ln)', item= "GCACAGCAAUAUUACGGUCU" )
Result block: -0.685

Query block: # get_value(readout='self-splicing fitness (ln)', item= "CGGGAGCAAUAUUACGGUAG" )
Result block: -3.73

Query block: # get_value(readout='self-splicing fitness (ln)', item= "CAGGAGCAAUAUUACGUCCG" )
Result block: 0.726

Query block: # get_value(readout='self-splicing fitness (ln)', item= "AUUAAGCAAUAUUACGUAAG" )
Result block: -0.562

Query block: # get_value(readout='self-splicing fitness (ln)', item= "UACUAGCAAUAUUACGUACA" )
Result block: -1.56

Query block: # get_value(readout='self-splicing fitness (ln)', item= "GGCCAGCAAUAUUACGGCCC" )
Result block: -2.83

Query block: # get_value(readout='self-splicing fitness (ln)', item= "UGAUAGCAAUAUUACGAUUA" )
Result block: -0.749

Query block: # get_value(readout='self-splicing fitness (ln)', item= "CGUCAGCAAUAUUACGGAUU" )
Result block: -1.35

Query block: # get_value(readout='self-splicing fitness (ln)', item= "CCAGAGCAAUAUUACGAGUC" )
Result block: -2

Query block: # get_value(readout='self-splicing fitness (ln)', item= "CCCCAGCAAUAUUACGGGAU" )
Result block: -3.28

Query block: # get_value(readout='self-splicing fitness (ln)', item= "UUAUAGCAAUAUUACGGGUU" )
Result block: -3.8

Query block: # get_value(readout='self-splicing fitness (ln)', item= "CCCGAGCAAUAUUACGGUUU" )
Result block: -3.14

Query block: # get_value(readout='self-splicing fitness (ln)', item= "CAUUAGCAAUAUUACGGAGG" )
Result block: -0.36

Query block: # get_value(readout='self-splicing fitness (ln)', item= "UGUAAGCAAUAUUACGGUAA" )
Result block: -1.8

Query block: # get_value(readout='self-splicing fitness (ln)', item= "ACACAGCAAUAUUACGCGAA" )
Result block: -2.47

Query block: # get_value(readout='self-splicing fitness (ln)', item= "CGGUAGCAAUAUUACGUCGG" )
Result block: -0.5

Query block: # get_value(readout='self-splicing fitness (ln)', item= "UAUGAGCAAUAUUACGGAAG" )
Result block: -3.37

Query block: # get_value(readout='self-splicing fitness (ln)', item= "GGAUAGCAAUAUUACGGUUC" )
Result block: -2.54

Query block: # get_value(readout='self-splicing fitness (ln)', item= "GAAUAGCAAUAUUACGUGGU" )
Result block: -3.01

Query block: # get_value(readout='self-splicing fitness (ln)', item= "CCCUAGCAAUAUUACGCACA" )
Result block: -2.5

Query block: # get_value(readout='self-splicing fitness (ln)', item= "GGUUAGCAAUAUUACGCGAA" )
Result block: -0.818

Query block: # get_value(readout='self-splicing fitness (ln)', item= "CGUGAGCAAUAUUACGCGUC" )
Result block: -3.12
